B1: ZNF449 (parent)
chain: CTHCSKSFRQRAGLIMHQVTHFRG

variants of: B1; test: protein stability index of a GFP-peptide fusion (GPS, HEK-293T) (PSI 1-6); higher = more stable; details: c terminus: a fixed tail appended;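 also: lentivirally expressed fusions sorted by FACS into six bins by GFP to DsRed ratio, PSI derived from sequencing read proportions per bin multiplied by bin number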
measure_name: protein stability index

INSERT INTO measurements (variant_annotation, measure_name, observed) VALUES
  ('R11T', 'protein stability index', 1.69),
  ('C1W', 'protein stability index', 3.78),
  ('H21Q', 'protein stability index', 1.35),
  ('L14Q', 'protein stability index', 2.02),
  ('V19C', 'protein stability index', 3.24),
  ('F8V', 'protein stability index', 1.07),
  ('M16C', 'protein stability index', 2.64),
  ('C4M', 'protein stability index', 1.68),
  ('G24L', 'protein stability index', 3.55),
  ('G13Y', 'protein stability index', 1.31),
  ('R11F', 'protein stability index', 2.46),
  ('H3P', 'protein stability index', 1.04),
  ('R23F', 'protein stability index', 3.33),
  ('H3T', 'protein stability index', 2.09),
  ('H21S', 'protein stability index', 1.29),
  ('A12P', 'protein stability index', 2.69),
  ('R23S', 'protein stability index', 2.07),
  ('L14R', 'protein stability index', 2.01),
  ('F8N', 'protein stability index', 2.04),
  ('G13H', 'protein stability index', 1.4),
  ('G13T', 'protein stability index', 2.36),
  ('R23V', 'protein stability index', 3.18),
  ('Q18V', 'protein stability index', 1.52),
  ('H21C', 'protein stability index', 2.53),
  ('V19H', 'protein stability index', 1.89),
  ('R9K', 'protein stability index', 2.81),
  ('H17G', 'protein stability index', 3.28),
  ('G13L', 'protein stability index', 1.68);
